Reference for the values: patent US11584714B2

tested-target: MASP-2 (CCP1-CCP2-SP) (Homo sapiens (Human))
Sequence (O00187 445-686): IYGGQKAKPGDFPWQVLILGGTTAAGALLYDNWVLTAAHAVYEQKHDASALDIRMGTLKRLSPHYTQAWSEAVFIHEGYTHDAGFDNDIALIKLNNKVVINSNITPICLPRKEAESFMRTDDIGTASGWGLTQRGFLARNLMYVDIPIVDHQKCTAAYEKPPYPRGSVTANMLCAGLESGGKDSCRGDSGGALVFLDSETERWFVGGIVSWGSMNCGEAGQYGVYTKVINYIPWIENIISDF
assay-protocol: biochemical
Format: biochemical
protocol-conditions: selectivity for MASP-2 inhibition versus thrombin
Where a name gives a salt, the structure may show the parent alone.

[
  {
    "compound": "C[C@H](NC(=O)[C@@H](CCc1ccccc1)NCCc1ccccc1)C(=O)NCc1ccc(C(=N)N)cc1 [compound 1340, Dihydrochloride]",
    "tested-target": "MASP-2 (CCP1-CCP2-SP) (Homo sapiens (Human))",
    "MASP-2 vs. thrombin selectivity": "** (≥5.0 to <25-fold)"
  },
  {
    "compound": "C[C@H](NC(=O)[C@H](N)CCc1ccccc1)C(=O)NCc1ccc(C(=N)N)nc1",
    "tested-target": "MASP-2 (CCP1-CCP2-SP) (Homo sapiens (Human))",
    "MASP-2 vs. thrombin selectivity": "** (≥5.0 to <25-fold)"
  }
]

---

tested-target: MASP-2 (CCP1-CCP2-SP) (Homo sapiens (Human))
assay-protocol: biochemical
Format: biochemical
Structures can show the parent of a compound that is named as a salt.
Property: Ki; scope: individual molecules

Example entries and their recorded answers appear below.
[
  {
    "molecule": "C[C@H](NC(=O)[C@H](N)CCc1ccccc1)C(=O)NCc1cnc(N)c(F)c1",
    "readout-type": "Ki",
    "recorded-result": "2.5 to 10 µM"
  },
  {
    "molecule": "C[C@H](NC(=O)[C@H]1C[C@H](c2ccccc2)CN1)C(=O)NCc1cc(Cl)ccc1-n1ncnn1 [compound 1394, Trifluoroacetate]",
    "readout-type": "Ki",
    "recorded-result": "2.5 to 10 µM"
  }
]

Could you now look at the following molecule, please?
[ask] Provide value of Ki for this record tested with MASP-2 (CCP1-CCP2-SP) (Homo sapiens (Human)): C[C@H](NC(=O)[C@H]1C[C@H](c2ccccc2)CN1)C(=O)NCc1cc(Cl)cc(C#N)c1 [compound 1386, Trifluoroacetate salt]
[reply] 10 to 25 µM

---

tested-target: MASP-2 (CCP1-CCP2-SP) (Homo sapiens (Human))
assay-protocol: biochemical
Format: biochemical
protocol-conditions: MASP-2 inhibition versus thrombin

[
  {
    "compound": "COc1ccc(CC[C@@H](N)C(=O)N[C@@H](C)C(=O)NCc2ccc(C(=N)N)cc2)cc1 [compound 1076]",
    "MASP-2 vs. thrombin selectivity": "** (5.0 to 25-fold)"
  },
  {
    "compound": "COc1ccccc1CC[C@@H](N)C(=O)N[C@@H](C)C(=O)NCc1ccc(C(=N)N)cc1 [compound 1074]",
    "MASP-2 vs. thrombin selectivity": "** (5.0 to 25-fold)"
  }
]

---

What follows is a record of pKi for MASP-2 (Homo sapiens (Human)).
pKi: −log10 of the molar value.

[ask] Endpoint output: pKi of CN(C)C(=S)Nc1ccccc1C(=O)O [compound 25] . Value?
[reply] 4.00 to 4.60

[ask] # get_value(readout='pKi', item= O=c1oc(-c2ccco2)nc2scc(-c3cccs3)c12 [compound 19] )
[reply] > 5.00

[ask] Recorded pKi of O=C1OC(/C=C/c2ccccc2)=NC/1=C\c1ccco1 [compound 6] , please.
[reply] > 5.00

[ask] Value lookup for pKi; key = CC(=O)c1ccc2c(c1)C1C=CCC1C(C(=O)O)N2 (stereo not shown) [compound 30]
[reply] 4.00 to 4.60

[ask] Requested field: pKi. Item: N=C(N)c1ccc2ccccc2c1 [compound 53]
[reply] > 5.00

[ask] // lookup pKi for COc1ccc(S(=O)(=O)n2nc(OC(=O)c3ccco3)cc2N)cc1 [compound 40]
[reply] > 5.00

[ask] Report pKi for C/C=C/C=C/C(=O)Nc1ccccc1C(=O)O [compound 37] please.
[reply] 4.00 to 4.60

[ask] Reported pKi for O=C(Nc1nc[nH]n1)c1cccc(I)c1 [compound 36] : what is it?
[reply] > 5.00

[ask] Fill blank: measured pKi of the compound O=C(Oc1cccc([N+](=O)[O-])c1)c1ccco1 [compound 27] is ____.
[reply] > 5.00

[ask] Given the compound Cc1cccc2c(=O)oc(-c3ccccc3Cl)nc12 [compound 18] , what is its reported pKi?
[reply] > 5.00

---

tested-target: human α-thrombin (Homo sapiens (Human), UniProt P00734)
assay-protocol: Enzymatic assay for thrombin (Boc-VPR-AMC substrate)
Type: biochemical
protocol-conditions: read-out: Thrombin Ki
Structures can show the parent of a compound that is named as a salt.
readout-type: Ki

Answered examples (2):
[
  {
    "compound": "Cc1c(Cl)cccc1CC[C@@H](N)C(=O)N[C@@H](C)C(=O)NCc1ccc(C(=N)N)cc1",
    "recorded-result": "< 0.5 µM"
  },
  {
    "compound": "N=C(N)c1ccc(CNC(=O)[C@@H]2CCN2C(=O)[C@H](NCC(=O)O)C2Cc3ccccc3C2)cc1",
    "recorded-result": "< 0.5 µM"
  }
]

[ask] Endpoint output: Ki of C[C@H](NC(=O)[C@H](N)C1Cc2ccccc2C1)C(=O)NCc1ccc2nc(N)ccc2c1 . Value?
[reply] > 25 µM

[ask] For the compound Cc1nc(N)ccc1CNC(=O)[C@H](C)NC(=O)[C@H]1C[C@H](Cc2ccc(Cc3ccccc3)cc2)CN1 [compound 1427, di-trifluoroacetate salt] , what Ki is on record?
[reply] > 25 µM

---

Readings of pKi for the listed molecules
tested-target: human α-thrombin (Homo sapiens (Human))
assay-protocol: Enzymatic assay for thrombin (Boc-VPR-AMC substrate)
Assay type: biochemical
protocol-conditions: read-out: Thrombin Ki
pKi: −log10 of the molar value. Where a name gives a salt, the structure may show the parent alone.

[
  {
    "molecule": "Cc1nc(N)ccc1CNC(=O)[C@H](C)NC(=O)[C@H]1C[C@H](Cc2cc(Cl)ccc2Cl)CN1 [compound 1444, Dihydrochloride]",
    "tested-target": "human α-thrombin (Homo sapiens (Human))",
    "pKi": "> 6.30"
  },
  {
    "molecule": "Cc1nc(N)ccc1CNC(=O)[C@H](C)NC(=O)[C@H]1C[C@H](Cc2ccc(N3CCCC3=O)cc2)CN1 [compound 1391, Di-trifluoroacetate salt]",
    "tested-target": "human α-thrombin (Homo sapiens (Human))",
    "pKi": "< 4.60"
  }
]

--- query ---
[ask] Entry N=C(N)c1ccc(CNC(=O)[C@@H]2CCN2C(=O)[C@H](N)Cc2ccccc2)cc1 , system human α-thrombin (Homo sapiens (Human)): what pKi was measured?
[reply] > 6.30

---

tested-target: human α-thrombin (Homo sapiens (Human), UniProt P00734)
assay-protocol: Enzymatic assay for thrombin (Boc-VPR-AMC substrate)
Type: biochemical
protocol-conditions: read-out: Thrombin Ki
Structures can show the parent of a compound that is named as a salt.
Each item that follows carries a reported Ki.

[ask] Would you mind telling me what Ki value was observed for N=C(N)c1ccc(CNC(=O)[C@@H]2CCN2C(=O)[C@@H](Cc2ccccc2)NCC(=O)O)cc1 ?
[reply] < 0.5 µM

[ask] # input compound: Cc1nc(N)ccc1CNC(=O)[C@H](C)NC(=O)[C@H]1Cc2c([nH]c3ccccc23)CN1 [compound 1389, Hydrochloride] ; wanted: its Ki
[reply] > 25 µM

[ask] Value lookup for Ki; key = CCN1CC[C@H](c2ccccc2)C[C@@H]1C(=O)N[C@@H](C)C(=O)NCc1ccc(N)nc1C
[reply] > 25 µM

[ask] Form field: reported Ki of C[C@H](NC(=O)[C@H](N)CCc1ccccc1)C(=O)NCc1ccc2c(N)ncnc2c1 [compound 1060, Dihydrochloride]
[reply] > 25 µM

[ask] Can you look up the measured Ki of C[C@H](NC(=O)[C@H]1C[C@H](c2ccccc2)CN1)C(=O)NCc1ccc2c(N)n[nH]c2c1 [compound 1425, Trifluoroacetate salt] for me?
[reply] > 25 µM

[ask] Which Ki value belongs to Cc1nc(N)ccc1CNC(=O)[C@H](C)NC(=O)[C@H]1CC(Cc2ccc(F)cc2)(Cc2ccc(F)cc2)CN1 [compound 1480, Di-trifluoroacetate salt] ?
[reply] > 25 µM

[ask] Consider the compound C[C@H](NC(=O)[C@H]1C[C@@H](c2cccc(CN)c2)CN1)C(=O)NCc1ccc(C(=N)N)cc1 and give its measured Ki.
[reply] < 0.5 µM

[ask] Name the reported Ki value associated with the compound C[C@H](NC(=O)[C@H](N)Cc1cccc2ccccc12)C(=O)NCc1ccc(C(=N)N)cc1
[reply] < 0.5 µM

[ask] Look at this compound and give its reported Ki. C[C@H](NC(=O)[C@H]1C[C@H](Cc2ccccc2)CN1)C(=O)NCc1cc(Cl)ccc1-n1cnnn1 [compound 1371, Hydrochloride]
[reply] < 0.5 µM

[ask] What does the record list as Ki for Cc1cc(C[C@@H]2CN[C@@H](C(=O)N[C@@H](C)C(=O)NCc3cnc4c(c3)c(Cl)cn4C)C2)ccn1 [compound 1468, Trifluoroacetate] ?
[reply] > 25 µM

[ask] I'd like to know its Ki. The compound in question is COC(=O)COc1ccc(CN[C@H](CCc2ccccc2)C(=O)N[C@@H](C)C(=O)NCc2ccc(C(=N)N)cc2)cc1
[reply] < 0.5 µM

[ask] Please report the recorded Ki for Cc1nc(N)ccc1CNC(=O)[C@H](C)NC(=O)[C@H]1C[C@H](Cc2cc3ccccc3s2)CN1 [compound 1458, Di-trifluoroacetate salt] .
[reply] > 25 µM

[ask] // query Ki value for entry C[C@H](NC(=O)[C@@H](CCc1ccccc1)NCc1ccc(N2CCN(S(C)(=O)=O)CC2)cc1)C(=O)NCc1ccc(C(=N)N)cc1
[reply] < 0.5 µM
